# EXPERIMENT DESCRIPTION: Cellular viability qHTS for adrenocortical cancer (ACC) cell line NCI-H295R (AID 1963990); further: nearly all actives have a fitted effect of over 60% in size; further: potency means the concentration at half of the fitted maximal effect
# CONDITIONS: CellTiter-Glo ATP luminescence, 48 h; series mostly up to 46.1 µM
Results filed as inconclusive are left out. Activity calls are given as the source filed them. The call rests on the fitted dose curve; in most records, active means well fitted cell-killing curve with a large enough effect; inconclusive means small, poorly fitted or top-dose-only effect; inactive means flat fitted curve, though single readings scatter.
READOUT NAME: Potency

> print(dat)
                                 smiles.data  observed.measurement
 1  O=C(/C=C/C#Cc1cccc(NS(=O)(=O)c2ccccc2)c1)NO      3.19 µM (active)
 2  O=C(O)Cn1c(C(=O)Nc2nc(-c3ccccc3Cl)cs2)cc2ccccc21              inactive
 3  CON(C)C(=O)N1N=C(c2cc(F)ccc2F)S[C@@]1(CCCN)c1ccccc1    0.0562 µM (active)
 4  OC1(c2ccc(Cl)c(C(F)(F)F)c2)CCN(CCCC(c2ccc(F)cc2)c2ccc(F)cc2)CC1      3.66 µM (active)
 5              CCCCCCCCCCCCCCCC[N+](C)(C)CC      7.31 µM (active)
 6  C[C@@]1(c2ncncc2F)NC(=O)c2cc(-c3cn[nH]c3)ccc21              inactive
 7         O=C(NCc1ccccc1)c1csc(Nc2ccncn2)n1      31.6 µM (active)
 8                   Cc1ccsc1/C=C/C1=NCCCN1C              inactive
 9                       Nc1cc(=O)[nH]c(N)n1              inactive
10  COc1cc(C(=O)N2CCC(N3CCN(C)CC3)CC2)ccc1Nc1ncc2c(n1)N(C)c1ccccc1C(=O)N2C      12.6 µM (active)
11  CN1CCN(CCC(=O)N2c3ccccc3Sc3ccc(C(F)(F)F)cc32)CC1      23.1 µM (active)

* * *

# EXPERIMENT DESCRIPTION: Quantitative highthroughput screen to assess conditional lethalithy of NOMO1 cells grown in RPMI1640 with dialyzed fetal bovine serum (RPMI+ds) (AID 1963877); further: nearly all actives have a fitted effect of over 30% in size
# CONDITIONS: NOMO1 in RPMI+dialyzed FBS viability, ATP luminescence, 48 h; series mostly up to 45.8 µM
Inconclusive results are not listed. Calls of active or inactive are those of the source. Calls come from the whole dose curve; as a rule, active = well fitted cell-killing curve with a large enough effect; inconclusive = small, poorly fitted or top-dose-only effect; inactive = flat fitted curve, though single readings scatter.
Possible outcomes: Y (active), N (inactive)

> print(dat)
                                    compound  cat
 1  COc1cc(OC)cc(-c2ccc3ncc4ccc(=O)n(-c5ccc(N6CCNCC6)c(C(F)(F)F)c5)c4c3c2)c1    Y
 2    CCCCOCCOc1nc(-c2ccc(C(=O)O)c(F)c2)sc1C    N
 3  Cc1ccccc1C(=O)c1ccc(Nc2ccc(Br)cc2N)cc1Cl    Y
 4  COc1cc(Nc2ncc(F)c(Nc3ccc4c(n3)N(COP(=O)(O)O)C(=O)C(C)(C)O4)n2)cc(OC)c1OC    N
 5  CC(C)c1onc(-c2c(Cl)cccc2Cl)c1COc1ccc(C=Cc2cccc(C(=O)O)c2)c(Cl)c1    N
 6  O=c1c(O)c(-c2ccc(O)cc2O)oc2cc(O)cc(O)c12    N
 7  O=C1c2ccccc2-[n+]2ccc3c([nH]c4ccccc43)c21    Y
 8                    O=c1ccc2ccc(O)c(O)c2o1    N
 9  CC(C)NCC(O)c1ccc(O)c(O)c1 (stereo not given)    Y
10  CNC(=O)c1nn(C)c2c1C(C)(C)Cc1cnc(Nc3ccc(N4CCN(C)CC4)cc3)nc1-2    Y

* * *

# EXPERIMENT DESCRIPTION: Viability qHTS for spleen associated tyrosine kinase inhibitor (SYKi) naive MV4-11 cells (AID 1963823); further: nearly all actives have a fitted effect of over 40% in size
# CONDITIONS: MV4-11 AML viability, CellTiter-Glo luminescence, 72 h; series mostly up to 45 µM
Inconclusive results are not listed. Activity calls are given as the source filed them. The call rests on the fitted dose curve; in most records, active means well fitted cell-killing curve with a large enough effect; inconclusive means small, poorly fitted or top-dose-only effect, or effect the other way; inactive means no such curve, though single readings can be large or run the other way.
Possible outcomes: active, inactive

COMPOUND	CAT
CC(=O)c1cc2c(o1)C(=O)c1ccccc1C2=O	active
Cc1[nH]nc2ncc(C(=O)N3CCC[C@H]3c3ccc(Cl)cc3)cc12	active
CCN1CCCC1CNC(=O)c1cc(S(=O)(=O)CC)c(N)cc1OC (configuration not stated)	inactive
CC(C)(C)C(=O)OCOC(=O)[C@@H]1N2C(=O)[C@@H](NC(=O)[C@H](N)c3ccccc3)[C@H]2SC1(C)C	inactive
COc1ccc(N2C(=O)N(c3c(C)cccc3Cl)Cc3cnc(Nc4ccc(C5CCN(C)CC5)cc4OC)nc32)nc1	active
O=C(O)c1ccccc1OP(=O)(O)O	inactive
CON(C)C(=O)N1N=C(c2cc(F)ccc2F)S[C@@]1(CCCN)c1ccccc1	active
Cc1ccc(C(=O)N(CCCN)[C@@H](c2oc3cc(Cl)ccc3c(=O)c2Cc2ccccc2)C(C)C)cc1	active
COc1cc(C)[nH]c(=O)c1CN1CCc2c(Cl)cc([C@H](OC)C3COC3)c(Cl)c2C1=O	inactive
Cc1cn([C@H]2C[C@H](F)[C@@H](CO)O2)c(=O)[nH]c1=O	inactive
NC(=O)c1cnc(NCCc2ccc(O)c(Cl)c2)nc1NCc1ccccc1	active
CC1(C(=O)O)CCCC2(C)C3CCC4CC3(CCC12)CC4(O)CO (configuration not stated)	inactive
O=C(O)c1ccc(CN2CCC(CN[C@@H]3C[C@H]3c3ccccc3)CC2)cc1	inactive
CC(=O)[C@H]1CC[C@H]2[C@@H]3CC=C4C[C@@H](O)CC[C@]4(C)[C@H]3CC[C@]12C	active
CCCCNC(=O)[C@@H]1Cc2ccccc2N1C(=O)[C@@H](N)CC	inactive
COC(=O)C[C@@H]1C(C(=O)O)=CO[C@@H](O[C@@H]2O[C@H](CO)[C@@H](O)[C@H](O)[C@H]2O)/C1=C\COC(=O)/C=C\c1ccccc1	inactive
C=C1C(=O)OC(CCCCCCCC)C1C(=O)O (configuration not stated)	inactive
CC(C)c1cc(C(=O)N2Cc3ccc(CN4CCN(C)CC4)cc3C2)c(O)cc1O	active
COc1ccc(/C=C/C(=O)O[C@@H]2[C@@H](O)[C@H](C)O[C@@H](O[C@H]3[C@@H]4C=CO[C@@H](O[C@H]5O[C@@H](CO)[C@H](O)[C@@H](O)[C@@H]5O)[C@@H]4[C@@]4(CO)O[C@@H]34)[C@@H]2OC(C)=O)cc1	inactive
Cc1ccc(C(=O)Nc2ccc(CN3CCN(C)CC3)c(C(F)(F)F)c2)cc1C#Cc1cnc2[nH]ncc2c1	inactive
C=C1C(=O)O[C@@H]2/C=C(\CO)CC/C=C(/C=O)C[C@H](O)[C@@H]12	active
O=C1N(c2ccccc2)c2ccccc2C1(Cc1ccncc1)Cc1ccncc1	inactive
CC1=C2C(=O)C=C(CO)[C@@H]2[C@H]2OC(=O)[C@H](C)[C@@H]2[C@@H](O)C1	inactive
CCOC(=O)c1cccnc1	inactive
CN1CCN(C(=O)CN[C@@H]2C[C@H]2c2ccc(OCc3ccccc3)cc2)CC1	active
Cc1cc(C)cc(NC(=O)Cc2ccc(OC(C)(C)C(=O)O)cc2)c1	inactive
CC(=O)Nc1ccc([C@H](C)C(=O)Nc2ncc(C(C)C)s2)cc1	active
O=C(c1cncc(Br)c1)N1CCC(N2CCCC2)CC1	inactive
Cc1cc(Nc2cc(N3CCN(C)CC3)nc(Sc3ccc(NC(=O)C4CC4)cc3)n2)n[nH]1	active
CCNC(=O)[C@@H]1CCCN1C(=O)[C@H](CCCN=C(N)N)NC(=O)[C@H](CC(C)C)NC(=O)[C@@H](C)NC(=O)[C@H](Cc1ccc(O)cc1)NC(=O)[C@H](CO)NC(=O)[C@H](Cc1c[nH]c2ccccc12)NC(=O)[C@H](Cc1cnc[nH]1)NC(=O)[C@@H]1CCC(=O)N1	inactive
C[C@H]1COCCN1c1cc(C2(S(=O)(=O)C3CC3)CC2)nc(-c2ccc(NC(=S)NCCO)cc2)n1	active
CCN(CC)Cc1cccc(/C=C/c2nc3ccc(F)cc3c(=O)n2-c2ccccc2Cl)n1	active
O=C(c1ccccc1)c1ccccc1	inactive
CC1CCC/C=C/C(=O)c2c(O)cc(O)cc2CC(=O)O1 (configuration not stated)	active
COc1cccc2c(NCc3ccccc3)nc(-n3c(N)nc4ccccc43)nc12	active
NCCCC[C@H](NC(=O)[C@@H]1Cc2ccccc2CN1C(=O)CCC(=O)c1ccccc1)C(=O)NCC(c1ccccc1)c1ccccc1	active
NC(=O)NO	inactive

* * *

# EXPERIMENT DESCRIPTION: Viability qHTS for spleen associated tyrosine kinase inhibitor (SYKi) naive MV4-11 cells (AID 1963823); further: nearly all actives have a fitted effect of over 40% in size
# CONDITIONS: MV4-11 AML viability, CellTiter-Glo luminescence, 72 h; series mostly up to 45 µM
Inconclusive results are not listed. Active and inactive are the calls of the source. Calls follow the shape of the dose curve; as a rule, active = well fitted cell-killing curve with a large enough effect; inconclusive = small, poorly fitted or top-dose-only effect, or effect the other way; inactive = no such curve, though single readings can be large or run the other way.
Possible outcomes: active, inactive

> print(dat)
                                    molecule       cat
 1  CC(C)(O)C1=CCC23COC(C2)C(O)(C(=O)O)CCC13 (configuration not stated)  inactive
 2  CCC[C@@H](NC(=O)N1C(=O)C(CC)(CC)[C@@H]1Oc1ccc(C(=O)N2CCN(C)CC2)cc1)c1ccc2c(c1)OCO2    active
 3  COC(=O)CC1CC(c2ccc(O)cc2)=NO1 (configuration not stated)  inactive
 4  C[C@]12C[C@@H](O)[C@@H]3C[C@@]1(O[C@@H]1O[C@H](CO)[C@@H](O)[C@H](O)[C@H]1O)[C@]3(COC(=O)c1ccccc1)C(=O)O2  inactive
 5  C[N+](C)(C)CC[N+]1(C)Cc2c(Cl)c(Cl)c(Cl)c(Cl)c2C1  inactive
 6  COCCCOc1cc(C[C@@H](C[C@H](N)[C@@H](O)C[C@H](C(=O)NCC(C)(C)C(N)=O)C(C)C)C(C)C)ccc1OC  inactive
 7  CCOc1cc(C(C)(C)C)ccc1C1=NC(C)(c2ccc(Cl)cc2)C(C)(c2ccc(Cl)cc2)N1C(=O)N1CCN(CCCS(C)(=O)=O)CC1 (configuration not stated)    active
 8  CC(C)N(CCCNC(=O)Nc1ccc(C(C)(C)C)cc1)C[C@H]1O[C@@H](n2cc(Br)c3c(N)ncnc32)[C@H](O)[C@@H]1O    active
 9  CCN1C(=O)CNc2ncc(-c3ccc(-c4ncn[nH]4)nc3C)nc21    active
10  C=C1CC2C3(C)C(O)CC(=O)C(C)(C)C3C(OC(C)=O)C(OC(C)=O)C2(C)C2C(=O)OC(C)(C(=O)OC)C(=O)C12C (configuration not stated)  inactive
11  CCN1CCC(n2cc(CNc3cc(Cl)c4ncc(C#N)c(Nc5ccc(F)c(Cl)c5)c4c3)nn2)CC1    active
12  CC(C)=CCC/C(C)=C/Cc1ccc(O)c(C2OC(=O)c3cc(C(=O)O)cc(O)c32)c1O (configuration not stated)  inactive
13  C[C@@H]1C[C@H](N)C[C@H](c2ccncc2NC(=O)c2ccc(F)c(-c3c(F)cccc3F)n2)C1    active
14                CC1(C)OC(=O)Nc2ccc(Br)cc21  inactive
15  CC(C)c1nc(N(C)S(C)(=O)=O)nc(-c2ccc(F)cc2)c1/C=C/[C@@H](O)C[C@@H](O)CC(=O)O    active
16  CN1C(=O)c2ccccc2NC(=O)[C@]12O[C@@H]2c1cccc(O)c1  inactive
17  CC(C)(Cc1nc(-c2ccc(O)cn2)no1)C(=O)NC1=C(C(=O)O)CCCC1  inactive
